B1: LINE1-full (parent)
chain: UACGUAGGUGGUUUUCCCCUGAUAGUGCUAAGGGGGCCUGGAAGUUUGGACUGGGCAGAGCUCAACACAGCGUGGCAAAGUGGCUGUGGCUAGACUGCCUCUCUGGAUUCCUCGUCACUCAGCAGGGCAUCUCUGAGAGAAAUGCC

# Variants of: B1
# ASSAY_PROTOCOL: self-cleavage, relative activity (ratio to wild type); higher = more cleavage; in vitro, sequencing; the parent is a self-cleaving ribozyme
Short version: self-cleavage at least 0.8 is Criterion met, less is Criterion not met.

Study these solved cases before continuing.
INPUT_SEQUENCE	ASSIGNED_CLASS
UACGUAGGUGGUUUUCCCCUGAUAGUGCUAAGGGGGCCUGGAAGUUUGGUCUGGGCAGAGCUCAACACAGCGUGGCAAAGUGGCUGAGGCUAGACUGCCUCUCUGGAUUCCUCGUCACUCAGCAGGGCAUCUCUGAGAGAAAUGCC [A50U U87A]	Criterion not met
UACGUAGGUGGUUUUCCCCUGAGAGUGCUAAGGGGGCCUGGAAGUUUGGACUGGGCAGAGCUCAACACAGCGUGGCAAAGUGGCUGUGGCUAGACUGCCUCUCUGGAUUCCUCGUCACUCAGCAGGGCAUCUCUGAGAGAAACGCC [U23G U143C]	Criterion not met
UACGUAGGUGGUUUUCCCCUGAUAGUGCUAAGGGGGCCUGGAAGUUUGGACUGGGCAGAGCUCAACACAGCGUGGCAAAGUGGCUGUGGCUAGACUGCCACUCUGGAUUCCUCGUCACUCAGCAGGGCAUCUCUGAGAGUAAUGCC [U100A A140U]	Criterion not met
UACGUAGGUGGUUUUCCCCUGAUAGUGCUAAGCGGGCCUGGAAGUUUGGACUGGGCAGAGCUCAACACAGCGUGGCAAAGUGGCUGUGGCUAGACUGCCUCUCUGGAUUCCUCGUCACUCAGCAGGGCUUCUCUGAGAGAAAUGCC [G33C A129U]	Criterion met
UACGUAGGUGGUUUUCCCCUGAUAGUGCUAAGGGGGCCUGGAAGUUUGGACUGGGCAGAGCUCUACACGGCGUGGCAAAGUGGCUGUGGCUAGACUGCCUCUCUGGAUUCCUCGUCACUCAGCAGGGCAUCUCUGAGAGAAAUGCC [A64U A69G]	Criterion not met

**Query** Would you say UACGUAGGUGGUUUUCCCCUGAUAGUGCUAAGGGGGCCUGGGAGUUUGGACUGGGCAGAGCUCAACACAGCGUGGCAAAGUGGCUGUGGCUAGGCUGCCUCUCUGGAUUCCUCGUCACUCAGCAGGGCAUCUCUGAGAGAAAUGCC [A42G A94G] shows self-cleavage at minimum 0.8?
**Result** Criterion not met

**Query** Exam item: decide whether the reported self-cleavage for UACGUAGGUGGUUUUCCCCUGAUAGUGCUAAGGGGGCCUGGAAGUUUGGACUGGGCAGAGCUUAACACAGCGUGGCAAAGUGGCUGUGGCUAGACUGCCGCUCUGGAUUCCUCGUCACUCAGCAGGGCAUCUCUGAGAGAAAUGCC [C63U U100G] is at least 0.8.
**Result** Criterion not met

**Query** Could you verify whether the entry UACGUAGGUGGUUUUCCCCUGAUAGUGCUAAGGGGGCCCGGAAGUUUGGACUGGGCAGAGCUCAACACAGCGUGGCAAAGUGGCUGUGGCUGGACUGCCUCUCUGGAUUCCUCGUCACUCAGCAGGGCAUCUCUGAGAGAAAUGCC [U39C A92G] shows self-cleavage of no less than 0.8?
**Result** Criterion not met

**Query** Hi, just wondering whether UACGUAGGUGGUUUUCCCCUGAUAGUGCUAAGGGGGCCUGGAAGUUUAGACUGGGCAGAGCUCAACACAGCGUGGCAAAGUGGCUGUGGCUGGACUGCCUCUCUGGAUUCCUCGUCACUCAGCAGGGCAUCUCUGAGAGAAAUGCC [G48A A92G] shows self-cleavage of 0.8 or higher.
**Result** Criterion not met

**Query** Check this variant for self-cleavage at or above 0.8: UACGUAGGUGGUUUUCCCCUGAUAGUGCUAAGGGGGCCUGGAAGUUUAGACUGGGCAGAGCUCAACACAGCGUGGCAGAGUGGCUGUGGCUAGACUGCCUCUCUGGAUUCCUCGUCACUCAGCAGGGCAUCUCUGAGAGAAAUGCC [G48A A78G]
**Result** Criterion met

**Query** Is self-cleavage for UACGUAGGUGGUUUUCCCCUGAUAGUGCUAAGGGGGCCUGGAAGUUUGGACUGGGCAGAGCUCAGCUCAGCGUGGCAAAGUGGCUGUGGCUAGACUGCCUCUCUGGAUUCCUCGUCACUCAGCAGGGCAUCUCUGAGAGAAAUGCC [A65G A67U] at or above 0.8?
**Result** Criterion not met

Origin of values: the RNAGym collection of RNA variant scans (doi:10.7554/elife.90254)
